assay: Selectivity index, ratio of IC50 for African green monkey Vero cells to MIC for Mycobacterium tuberculosis H37Rv ATCC 25618; assay type: toxicity, cell-based; details: read-out: Selectivity Index
Readout Kind: selectivity ratio
Numbers only.

[[record]]
line_notation = "Brc1ccc(-c2nnc3n2N=C(c2ccccc2)CS3)cc1"
measured_value = 87.3

[[record]]
line_notation = "O=[N+]([O-])c1ccc(C2=Nn3c(nnc3-c3ccc(Br)cc3)SC2)cc1"
measured_value = 23.2

[[record]]
line_notation = "O=[N+]([O-])c1ccc(C2=Nn3c(Cc4ccc5ccccc5c4)nnc3SC2)cc1"
measured_value = 7.01

[[record]]
line_notation = "O=[N+]([O-])c1ccc(C2=Nn3c(nnc3-c3ccncc3F)SC2)cc1"
measured_value = 127


Turning now to a further compound:
Report selectivity ratio for `Fc1ccc(-c2nnc3sc(COc4ccccc4)nn23)cc1` please.
2.9

---

assay: Cytotoxicity against human HepG2 cells assessed as reduction in cell viability by Alamar blue assay; format: toxicity, cell-based
For each entry below, report its IC50 value.
Numbers only, in µM.

[[record]]
line_notation = "Brc1ccc(-c2nnc3n2N=C(c2ccccc2)CS3)cc1"
measure_unit = "µM"
measured_value = 235

[[record]]
line_notation = "O=[N+]([O-])c1ccc(C2=Nn3c(nnc3-c3ccncc3F)SC2)cc1"
measure_unit = "µM"
measured_value = 166

[[record]]
line_notation = "O=[N+]([O-])c1ccc(C2=Nn3c(nnc3-c3ccc(Br)cc3)SC2)cc1"
measure_unit = "µM"
measured_value = 10.4

[[record]]
line_notation = "O=[N+]([O-])c1ccc(C2=Nn3c(Cc4ccc5ccccc5c4)nnc3SC2)cc1"
measure_unit = "µM"
measured_value = 72.6


Now for another entry.
Find the recorded IC50 belonging to `Fc1ccc(-c2nnc3sc(COc4ccccc4)nn23)cc1` and report it.
46.6

---

assay: Inhibition of Mycobacterium tuberculosis shikimate dehydrogenase using shikimic acid as substrate in presence of NADP+ by spectrophotometric analysis
Please provide measured log10 IC50 for the entries that follow.
// stored as log10 of IC50 expressed in mg/L

Solved entries:
[[record]]
line_notation = "c1ccc(C2=Nn3c(nnc3-c3ccccc3)SC2)cc1"
readout_kind = "log10 IC50"
measured_value = 1.45

[[record]]
line_notation = "O=[N+]([O-])c1ccc(C2=Nn3c(nnc3-c3ccncc3F)SC2)cc1"
readout_kind = "log10 IC50"
measured_value = 1.87

[[record]]
line_notation = "Brc1ccc(-c2nnc3n2N=C(c2ccccc2)CS3)cc1"
readout_kind = "log10 IC50"
measured_value = 2.40

[[record]]
line_notation = "Fc1ccc(-c2nnc3sc(COc4ccccc4)nn23)cc1"
readout_kind = "log10 IC50"
measured_value = 1.36

[[record]]
line_notation = "O=[N+]([O-])c1ccc(C2=Nn3c(nnc3-c3ccc(Br)cc3)SC2)cc1"
readout_kind = "log10 IC50"
measured_value = 1.94


Give log10 IC50 for all compounds that follow.
1. O=[N+]([O-])c1ccc(C2=Nn3c(Cc4ccc5ccccc5c4)nnc3SC2)cc1
2. COc1ccc(C2=Nn3c(nnc3-c3ccncc3)SC2)cc1

[1.07, 1.32]

---

test: Cytotoxicity against African green monkey Vero cells assessed as reduction in cell viability by Alamar blue assay; type: toxicity, cell-based; settings: African green monkey (Chlorocebus sabaeus)
Readout Kind: pIC50
Answers are plain numbers, as −log10 of the molar value.

Sample answers from the record:
[[record]]
line_notation = "Brc1ccc(-c2nnc3n2N=C(c2ccccc2)CS3)cc1"
measured_value = 4.23

[[record]]
line_notation = "O=[N+]([O-])c1ccc(C2=Nn3c(nnc3-c3ccc(Br)cc3)SC2)cc1"
measured_value = 4.86

[[record]]
line_notation = "O=[N+]([O-])c1ccc(C2=Nn3c(nnc3-c3ccncc3F)SC2)cc1"
measured_value = 3.45

[[record]]
line_notation = "Fc1ccc(-c2nnc3sc(COc4ccccc4)nn23)cc1"
measured_value = 4.15


Alright, here's another compound for you.
# input compound: `O=[N+]([O-])c1ccc(C2=Nn3c(Cc4ccc5ccccc5c4)nnc3SC2)cc1` ; wanted: its pIC50
4.16

Values were extracted from ChEMBL document CHEMBL3875182.
